src = paper PMC2193072

- STUDY_TARGET: soluble I-A^g7 (I-Aα–Fos / I-Aβ–Jun heterodimer) (mouse (NOD) | not stated)
- EXPERIMENT_NOTES: antibody-capture peptide binding assay with europium-streptavidin
pIC50: −log10 of the molar value.
Reported pIC50 values follow for various binders

Sample answers from the record:
BINDER	QUANTITY	VALUE
PVSQMRMATPLLARP [Murine CLIP analogue with A at position 98 (P9), unlabeled]	pIC50	4.82
PVSQMRMATPLLHRP [Murine CLIP analogue with H at position 98 (P9), unlabeled]	pIC50	< 3.90
PVSQMRMATPLLGRP [Murine CLIP analogue with G at position 98 (P9), unlabeled]	pIC50	< 3.90

Now, please, on to the next binder.
response.value for PVSQMRMATPLLIRP [Murine CLIP analogue with I at position 98 (P9), unlabeled] (field: pIC50) = < 3.90
